- PROTOCOL DESCRIPTION: in vitro dissolution of fresh human cholesterol gallstones in a model gallbladder at high flow rate (Table I)
- DETAILS: high flow rate; stone taken as 90% by weight cholesterol
PARAMETER MEASURED: Dissolution Rate (mg/min)
Reply with just the number (in mg/min).

# get_value(readout='Dissolution Rate', item= COC(C)(C)C )
20

Also check CCOC(=O)C(C)C [ethyl isobutyrate]
8

Could you do the same for CCCOC(C)=O [n-propyl acetate] , please?
14

Try the compound CCOC(=O)CC [ethyl propionate]
13

Now the same for CC(=O)OC(C)C [isopropyl acetate]
9

---

- PROTOCOL DESCRIPTION: perfusion of the gallbladder of an anesthetized pig, solvent level in central venous blood by gas chromatography
- DETAILS: read-out: blood level of solvent during perfusion; 10 ml, 2 h gallbladder perfusion; central vein
PARAMETER MEASURED: concentration

Return reported concentration; argument: COC(C)(C)C
84 to 840 µM
